- Read-out: Macrophage colony-stimulating factor (MCSF), CSF1 (gene 1435)
- Assay Procedure: BSK_hDFCGF_MCSF: BioMAP Diversity Plus: hDFCGF Assay for Macrophage colony-stimulating factor (MCSF) Biomarker Activity (AID 2283060)
- Experimental Context: primary human foreskin fibroblasts; actives raise or lower the signal
Active and inactive are the calls of the source. Rule for the calls: active = hit-call score of the fitted dose curve at least 0.9, where 1 is the maximum; inactive = score below 0.9.
Pick one: YES for active, NO for inactive

Solved cases below.
Compound	Label Value
CC=Cc1ccc(OCC)c(O)c1	NO
C=C(C)C(=O)OCCOCCOCCOC(=O)C(=C)C	YES
CCCCCCCCCCCCCCCC(=O)OC/C=C(C)/C=C/C=C(C)/C=C/C1=C(C)CCCC1(C)C	YES
CS(=O)(=O)OCCCCOS(C)(=O)=O	NO
c1ccc(CCc2ccccc2)cc1	YES

How was Cc1cc(CCC(=O)OCCOCCOCCOC(=O)CCc2cc(C)c(O)c(C(C)(C)C)c2)cc(C(C)(C)C)c1O classified in this test?
NO

How was C[C@@H]1CCN(C(=O)[C@H](CCCN=C(N)N)NS(=O)(=O)c2cccc3c2NC[C@H](C)C3)[C@@H](C(=O)O)C1 classified in this test?
NO

How was CC(=O)c1c(C)c([N+](=O)[O-])c(C(C)(C)C)c([N+](=O)[O-])c1C classified in this test?
NO

How was CN(c1nccc(=O)[nH]1)C1CCN(c2nc3ccccc3n2Cc2ccc(F)cc2)CC1 classified in this test?
NO

How was CCCCCC(C=O)=Cc1ccccc1 classified in this test?
NO

* * *

- Read-out: Plasminogen activator inhibitor-1 (PAI1), SERPINE1 (gene 5054)
- Assay Procedure: BSK_MyoF_PAI1: BioMAP Diversity Plus: MyoF Assay for Plasminogen activator inhibitor-1 (PAI1) Biomarker Activity (AID 2284256)
- Experimental Context: primary human lung fibroblasts
- Experimental: BSK_MyoF is a cell-based, multiplexed-readout assay that uses lung fibroblasts, […], with measurements taken at 24 hours after chemical dosing in a microplate: 96-well plate.BSK_MyoF_PAI1 is an assay component measured in the BSK_MyoF assay. […] The levels of cell surface (or secreted, indicated by the prefix "s") biomarker endpoints were measured by ELISA. […] Plates were read after 6 h.
Active and inactive are the calls of the source. How the source made its calls: active means hit-call score of the fitted dose curve at least 0.9, where 1 is the maximum; inactive means score below 0.9.
Pick one: 1 (yes) = active, 0 (no) = inactive

Compound	Label Value
CC=Cc1ccc(OCC)c(O)c1	0 (no)
C[C@@H]1CCN(C(=O)[C@H](CCCN=C(N)N)NS(=O)(=O)c2cccc3c2NC[C@H](C)C3)[C@@H](C(=O)O)C1	0 (no)
COc1ccc(OC)c(N=Nc2c(O)ccc3ccccc23)c1	0 (no)
CCCCCCCCCCCCCCCC(=O)OC/C=C(C)/C=C/C=C(C)/C=C/C1=C(C)CCCC1(C)C	0 (no)
Cc1cc(CCC(=O)OCCOCCOCCOC(=O)CCc2cc(C)c(O)c(C(C)(C)C)c2)cc(C(C)(C)C)c1O	0 (no)

How was CCC(C)c1cc([N+](=O)[O-])cc([N+](=O)[O-])c1OC(=O)OC(C)C (stereo not given) classified in this test?
1 (yes)

How was C=C(C)C(=O)OCCOCCOCCOCCOC(=O)C(=C)C classified in this test?
0 (no)

* * *

- Assay Procedure: TOX21_p53_BLA_p3_viability: Viability Assessment in the Tox21 HCT-116 p53 Agonism Beta-lactamase Assay, Phase 3 (AID 2283593);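 note: cells exposed to compound for 16 h before reading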
Results filed as inconclusive are left out. Activity calls are given as the source filed them. The calls were made as follows: active = hit-call score of the fitted dose curve at least 0.9, where 1 is the maximum; inconclusive = response in the unintended direction; inactive = score below 0.9.
Pick one: TRUE = active, FALSE = inactive

Solved cases below.
Molecule	Label Value
CCCCCCCC(=O)OCCCCCC	FALSE
CSc1c(Cl)c(Cl)c(Cl)c(Cl)c1Cl	TRUE
CCCCCCCCC=CCCCCCCCC1=NCCN1CCO	TRUE
CCOCCOCCOCC	FALSE
CC(C)CCCCCCc1ccc(OCCOCCO)cc1	FALSE
CC(=O)O[C@@H]1CC2CCC1(C)C2(C)C (stereo partly drawn)	FALSE

How was COc1ccccc1[N+](=O)[O-] classified in this test?
FALSE

How was C=CCCCCCCCCCC classified in this test?
FALSE
